- MEASUREMENT PROTOCOL: logP by HPLC on reversed-phase columns (C 18), EU Guideline 79/831 Annex V.A8
- Format: physicochemical
- CONDITIONS: * LC-MS in the acidic range, pH 2.7, 0.1% aqueous formic acid and acetonitrile
Below, each entry is listed alongside its reported logP.

# SMILES TEXT, logP
records = [
    ("CN(C)C=Nc1c(-c2cc(Cl)cc(C(F)(F)F)c2)c(C(F)(F)F)nn1-c1cnccn1", "4.32*"),
    ("CN(C)C=Nc1c(-c2ccc(Cl)cc2)c(C(F)(F)Cl)nn1-c1ncccn1", "2.8*"),
    ("COC=Nc1c(-c2ccc(Cl)c(C(F)(F)F)c2)c(C(F)(F)F)nn1-c1ncccn1", 3.71),
    ("COc1nccnc1-n1nc(C(F)(F)F)c(-c2cc(Cl)cc(C(F)(F)F)c2)c1N=CN(C)C", "4.52*"),
    ("CCOc1nccnc1-n1nc(C(F)(F)F)c(-c2cc(Cl)cc(C(F)(F)F)c2)c1N=CN(C)C", "4.86*"),
    ("Cc1nn(-c2ncccn2)c(N=CN(C)C)c1-c1ccc(Cl)cc1", "1.09*"),
    ("CCOC=Nc1c(-c2cc(Cl)cc(C(F)(F)F)c2)c(C(F)(F)F)nn1-c1ncccn1", "4.61*"),
    ("CN(C)C=Nc1c(-c2cc(Cl)cc(C(F)(F)F)c2)c(C(F)(F)F)nn1-c1ncccn1", "3.89*"),
]

* * *

- Test system: greenhouse red spider mite (Tetranychus urticae)
- MEASUREMENT PROTOCOL: Tetranychus test, OP resistant (TETRUR spray treatment)
- Format: in vivo
- CONDITIONS: 100 g/ha, after 6 days
MEASURED QUANTITY: activity (spider mites killed) (%)

# SMILES TEXT, TARGET OF ASSAY, MEASURED QUANTITY, NUMERIC READOUT
measured = [
    ("FC(F)(F)c1cc(Cl)cc(-c2c(C(F)(F)F)nn(-c3ncccn3)c2N=Cc2ccccc2)c1", "greenhouse red spider mite (Tetranychus urticae)", "activity (spider mites killed)", 100),
    ("COc1ccc(C=Nc2c(-c3cc(Cl)cc(C(F)(F)F)c3)c(C(F)(F)C(F)F)nn2-c2ncccn2)cc1", "greenhouse red spider mite (Tetranychus urticae)", "activity (spider mites killed)", 90),
    ("CCOC=Nc1c(-c2cc(Cl)c3c(c2)OCO3)c(C(F)(F)F)nn1-c1nccnc1OC", "greenhouse red spider mite (Tetranychus urticae)", "activity (spider mites killed)", 100),
]

* * *

- MEASUREMENT PROTOCOL: logP by HPLC on reversed-phase columns (C 18), EU Guideline 79/831 Annex V.A8
- Format: physicochemical
- CONDITIONS: reversed-phase HPLC column (C 18), pH 2.7, * LC-MS in the acidic range, pH 2.7, 0.1% aqueous formic acid and acetonitrile
MEASURED QUANTITY: chromatographic logP

# SMILES TEXT, MEASURED QUANTITY, NUMERIC READOUT
records = [
    ("CN(C)/C=N/c1c(-c2cc(Cl)cc(Br)c2)c(C(F)(F)F)nn1-c1ncccn1", "chromatographic logP", 3.71),
]

* * *

- MEASUREMENT PROTOCOL: logP by HPLC on reversed-phase columns (C 18), EU Guideline 79/831 Annex V.A8
- Format: physicochemical
- CONDITIONS: ** LC-MS in the neutral range, pH 7.8, 0.001 molar aqueous ammonium bicarbonate and acetonitrile
Below, each entry is listed alongside its reported logP.

# SMILES TEXT, logP
rows = [
    ("FC(F)C(F)(F)c1nn(-c2ncccn2)c(N=Cc2ccccc2)c1-c1cc(Cl)c2c(c1)OCO2", "3.9**"),
    ("COc1cc(C=Nc2c(-c3cc(Cl)cc(C(F)(F)F)c3)c(C(F)(F)F)nn2-c2ncccn2)ccc1O", "4.05**"),
    ("FC(F)(F)c1cc(Cl)cc(-c2c(C(F)(F)C(F)(F)F)nn(-c3ncccn3)c2N=Cc2ccccc2)c1", "5.46**"),
    ("COc1ccc(C=Nc2c(-c3cc(Cl)cc(C(F)(F)F)c3)c(C(F)(F)C(F)F)nn2-c2nccnc2OC)cc1", "5.29**"),
]

* * *

- MEASUREMENT PROTOCOL: logP by HPLC on reversed-phase columns (C 18), EU Guideline 79/831 Annex V.A8
- Type: physicochemical
- CONDITIONS: ** LC-MS in the neutral range, pH 7.8, 0.001 molar aqueous ammonium bicarbonate and acetonitrile

# SMILES TEXT, logP
records = [
    ("COc1ccc(C=Nc2c(-c3cc(Cl)cc(C(F)(F)F)c3)c(C(F)(F)C(F)F)nn2-c2ncccn2)cc1", "3.69**"),
    ("FC(F)C(F)(F)c1nn(-c2ncccn2)c(N=Cc2ccc(Cl)cc2)c1-c1cc(Cl)c2c(c1)OCO2", "4.34**"),
    ("COc1ccc(C=Nc2c(-c3cc(Cl)cc(C(F)(F)F)c3)c(C(F)(F)F)nn2-c2nccnc2OC)cc1", "5.48**"),
    ("FC(F)(F)c1cc(Cl)cc(-c2c(C(F)(F)C(F)(F)F)nn(-c3ncccn3)c2N=Cc2ccc(Cl)cc2)c1", "5.93**"),
    ("COc1nccnc1-n1nc(C(F)(F)F)c(-c2cc(Cl)c3c(c2)OCO3)c1N=Cc1ccc(Cl)cc1", "5.1**"),
    ("FC(F)(F)c1cc(Cl)cc(-c2c(C(F)(F)F)nn(-c3ncccn3)c2N=Cc2ccc(Cl)cc2)c1", "5.53**"),
    ("COc1nccnc1-n1nc(C(F)(F)F)c(-c2cc(Cl)c3c(c2)OCO3)c1N=COC(C)C", "4.26**"),
    ("COc1nccnc1-n1nc(C(F)(F)F)c(-c2cc(Cl)cc(C(F)(F)F)c2)c1N=Cc1ccc(Cl)cc1", "6.01**"),
    ("COc1ccc(C=Nc2c(-c3cc(Cl)c4c(c3)OCO4)c(C(F)(F)C(F)F)nn2-c2ncccn2)cc1", "3.85**"),
    ("CCOC=Nc1c(-c2cc(Cl)c3c(c2)OCO3)c(C(F)(F)F)nn1-c1nccnc1OC", "4.03**"),
    ("COc1nccnc1-n1nc(C(F)(F)C(F)F)c(-c2cc(Cl)cc(C(F)(F)F)c2)c1N=Cc1ccccc1", "5.37**"),
    ("COc1ccc(C=Nc2c(-c3cc(Cl)cc(C(F)(F)F)c3)c(C(F)(F)C(F)(F)F)nn2-c2ncccn2)cc1", "5.4**"),
    ("COc1ccc(C=Nc2c(-c3cc(Cl)c4c(c3)OCO4)c(C(F)(F)F)nn2-c2nccnc2OC)cc1", "4.5**"),
    ("FC(F)(F)c1cc(Cl)cc(-c2c(C(F)(F)F)nn(-c3ncccn3)c2N=Cc2ccccc2Br)c1", "5.64**"),
    ("CCCCOC=Nc1c(-c2cc(Cl)cc(C(F)(F)F)c2)c(C(F)(F)F)nn1-c1ncccn1", "5.24**"),
    ("FC(F)C(F)(F)c1nn(-c2ncccn2)c(N=Cc2ccc(Cl)cc2)c1-c1cc(Cl)cc(C(F)(F)F)c1", "5.37**"),
    ("CCOC=Nc1c(-c2cc(Cl)cc(C(F)(F)F)c2)c(C(F)(F)F)nn1-c1ncccn1", "4.58**;"),
    ("CCOC=Nc1c(-c2cc(Cl)cc(C(F)(F)F)c2)c(C(F)(F)C(F)F)nn1-c1ncccn1", "4.43**"),
    ("COc1ccc(C=Nc2c(-c3cc(Cl)cc(C(F)(F)F)c3)c(C(F)(F)F)nn2-c2ncccn2)cc1", "4.98**"),
    ("COc1cc(C=Nc2c(-c3cc(Cl)cc(C(F)(F)F)c3)c(C(F)(F)F)nn2-c2nccnc2OC)cc(OC)c1OC", "5.35**"),
    ("CN(C)C=Nc1c(-c2cc(Cl)cc(C(F)(F)F)c2)c(C(F)(F)F)nn1-c1ncccn1", "3.84**;"),
    ("COc1ccc(C=Nc2c(-c3cc(Cl)c4c(c3)OCO4)c(C(F)(F)F)nn2-c2ncccn2)cc1", "3.97**"),
    ("COc1nccnc1-n1nc(C(F)(F)F)c(-c2cc(Cl)cc(C(F)(F)F)c2)c1N=Cc1ccccc1", "5.56**"),
]
